Values were extracted from the Immune Epitope Database (IEDB).

Below, each of the sequences is paired with its reported pKd value.
- EXPERIMENTAL_TARGET: HLA-A*03:01
- PROCEDURE_DETAILS: IEDB peptide-MHC binding, purified MHC/direct/fluorescence; filed as Kd, often an IC50 or EC50 that approximates it; bounds were set here for any values at or beyond the usual limits of such assays
- CONDITION_PARAMETERS: source organism: Coxiella burnetii
pKd: −log10 of the molar value.

>  <PRIMARY_SEQUENCE>
KGPDKLQVY

>  <RELATION_SIGN>
≤

>  <pKd>
4.70

$$$$
>  <PRIMARY_SEQUENCE>
HFFMKHPNK

>  <RELATION_SIGN>
=

>  <pKd>
6.66

$$$$

---

- EXPERIMENTAL_TARGET: HLA-A*11:01
- PROCEDURE_DETAILS: IEDB peptide-MHC binding, purified MHC/competitive/radioactivity; filed as Kd, often an IC50 or EC50 that approximates it; bounds were set here for any values at or beyond the usual limits of such assays
- CONDITION_PARAMETERS: source organism: Mammarenavirus juninense

>  <PRIMARY_SEQUENCE>
KYIHCFRKPH

>  <Kd>
≥ 69.7 µM

$$$$
>  <PRIMARY_SEQUENCE>
ANKQYIHCFR

>  <Kd>
≥ 46.6 µM

$$$$

---

- EXPERIMENTAL_TARGET: HLA-B*27:05
- PROCEDURE_DETAILS: IEDB peptide-MHC binding, purified MHC/competitive/fluorescence; filed as Kd, often an IC50 or EC50 that approximates it; bounds were set here for any values at or beyond the usual limits of such assays
- CONDITION_PARAMETERS: source organism: Bacillus anthracis str. A0488

>  <PRIMARY_SEQUENCE>
FVMPIFEQI

>  <Kd>
≥ 5 µM

$$$$

---

Each record here notes measured pKd.
- EXPERIMENTAL_TARGET: HLA-B*40:01
- PROCEDURE_DETAILS: IEDB peptide-MHC binding, purified MHC/competitive/radioactivity; filed as Kd, often an IC50 or EC50 that approximates it; bounds were set here for any values at or beyond the usual limits of such assays
- CONDITION_PARAMETERS: source organism: Dengue virus 2 Jamaica/1409/1983
pKd: −log10 of the molar value.
MEASURE_NAME: pKd

>  <PRIMARY_SEQUENCE>
EEEEQTLTI

>  <EXPERIMENTAL_TARGET>
HLA-B*40:01

>  <MEASURE_NAME>
pKd

>  <RESULT>
6.99

$$$$
>  <PRIMARY_SEQUENCE>
MEEALRGLPI

>  <EXPERIMENTAL_TARGET>
HLA-B*40:01

>  <MEASURE_NAME>
pKd

>  <RESULT>
7.27

$$$$

---

- EXPERIMENTAL_TARGET: HLA-A*68:02
- PROCEDURE_DETAILS: IEDB peptide-MHC binding, purified MHC/direct/fluorescence; filed as Kd, often an IC50 or EC50 that approximates it; bounds were set here for any values at or beyond the usual limits of such assays
- CONDITION_PARAMETERS: source organism: Limestone Canyon virus
pKd: −log10 of the molar value.
MEASURE_NAME: pKd

>  <PRIMARY_SEQUENCE>
LVTARQKLK

>  <RESULT>
≤ 4.70

$$$$

---

- EXPERIMENTAL_TARGET: HLA-A*11:01
- PROCEDURE_DETAILS: IEDB peptide-MHC binding, purified MHC/competitive/radioactivity; filed as Kd, often an IC50 or EC50 that approximates it; bounds were set here for any values at or beyond the usual limits of such assays
- CONDITION_PARAMETERS: source organism: Dengue virus 2 Peru/IQT2913/1996
pKd: −log10 of the molar value.

>  <PRIMARY_SEQUENCE>
FLMSGRGIGK

>  <EXPERIMENTAL_TARGET>
HLA-A*11:01

>  <pKd>
7.12

$$$$

---

- EXPERIMENTAL_TARGET: HLA-B*44:03
- PROCEDURE_DETAILS: IEDB peptide-MHC binding, purified MHC/competitive/radioactivity; filed as Kd, often an IC50 or EC50 that approximates it; bounds were set here for any values at or beyond the usual limits of such assays
- CONDITION_PARAMETERS: source organism: Dengue virus 1 Singapore/S275/1990

>  <PRIMARY_SEQUENCE>
SELETPNLAE

>  <Kd / µM>
6.33

$$$$

---

- EXPERIMENTAL_TARGET: HLA-A*02:01
- PROCEDURE_DETAILS: IEDB peptide-MHC binding, purified MHC/direct/fluorescence; filed as Kd, often an IC50 or EC50 that approximates it; bounds were set here for any values at or beyond the usual limits of such assays
- CONDITION_PARAMETERS: source organism: Yersinia pestis CA88-4125
pKd: −log10 of the molar value.
MEASURE_NAME: pKd

>  <PRIMARY_SEQUENCE>
KLLARFLFE

>  <EXPERIMENTAL_TARGET>
HLA-A*02:01

>  <RESULT>
≤ 4.70

$$$$

---

- EXPERIMENTAL_TARGET: HLA-A*29:02
- PROCEDURE_DETAILS: IEDB peptide-MHC binding, purified MHC/competitive/radioactivity; filed as Kd, often an IC50 or EC50 that approximates it; bounds were set here for any values at or beyond the usual limits of such assays
- CONDITION_PARAMETERS: source organism: Homo sapiens
pKd: −log10 of the molar value.
MEASURE_NAME: pKd

>  <PRIMARY_SEQUENCE>
FAFVTDNTY

>  <MEASURE_NAME>
pKd

>  <RESULT>
7.36

$$$$

---

// values below are reported pKd
- EXPERIMENTAL_TARGET: HLA-A*69:01
- PROCEDURE_DETAILS: IEDB peptide-MHC binding, purified MHC/direct/fluorescence; filed as Kd, often an IC50 or EC50 that approximates it; bounds were set here for any values at or beyond the usual limits of such assays
- CONDITION_PARAMETERS: source organism: Escherichia coli O157:H7
pKd: −log10 of the molar value.
MEASURE_NAME: pKd

>  <PRIMARY_SEQUENCE>
YLFQWNDNV

>  <EXPERIMENTAL_TARGET>
HLA-A*69:01

>  <MEASURE_NAME>
pKd

>  <RELATION_SIGN>
=

>  <RESULT>
8.44

$$$$
>  <PRIMARY_SEQUENCE>
GITGGHIPK

>  <EXPERIMENTAL_TARGET>
HLA-A*69:01

>  <MEASURE_NAME>
pKd

>  <RELATION_SIGN>
≤

>  <RESULT>
4.70

$$$$

---

- EXPERIMENTAL_TARGET: HLA-B*58:01
- PROCEDURE_DETAILS: IEDB peptide-MHC binding, purified MHC/direct/fluorescence; filed as Kd, often an IC50 or EC50 that approximates it; bounds were set here for any values at or beyond the usual limits of such assays
- CONDITION_PARAMETERS: source organism: Bacillus anthracis

>  <PRIMARY_SEQUENCE>
YFENSDLNL

>  <Kd>
≥ 20 µM

$$$$

---

- EXPERIMENTAL_TARGET: HLA-A*03:01
- PROCEDURE_DETAILS: IEDB peptide-MHC binding, purified MHC/direct/fluorescence; filed as Kd, often an IC50 or EC50 that approximates it; bounds were set here for any values at or beyond the usual limits of such assays
- CONDITION_PARAMETERS: source organism: Pasteurella multocida
MEASURE_NAME: Kd

>  <PRIMARY_SEQUENCE>
ILYVSCNPA

>  <RESULT>
0.403 µM

$$$$

---

- EXPERIMENTAL_TARGET: HLA-A*24:03
- PROCEDURE_DETAILS: IEDB peptide-MHC binding, purified MHC/direct/fluorescence; filed as Kd, often an IC50 or EC50 that approximates it; bounds were set here for any values at or beyond the usual limits of such assays
- CONDITION_PARAMETERS: source organism: Bacillus anthracis
pKd: −log10 of the molar value.
MEASURE_NAME: pKd

>  <PRIMARY_SEQUENCE>
YFENSDLNL

>  <RESULT>
6.89

$$$$

---

- EXPERIMENTAL_TARGET: HLA-A*68:23
- PROCEDURE_DETAILS: IEDB peptide-MHC binding, purified MHC/competitive/fluorescence; filed as Kd, often an IC50 or EC50 that approximates it; bounds were set here for any values at or beyond the usual limits of such assays
- CONDITION_PARAMETERS: source organism: Choclo virus
pKd: −log10 of the molar value.
MEASURE_NAME: pKd

>  <PRIMARY_SEQUENCE>
LPSSSSYSY

>  <RESULT>
5.79

$$$$
